Below, each entry is listed alongside its reported PBM E-score.
Molecular target: Zap1 (UniProt P47043)
Sequence: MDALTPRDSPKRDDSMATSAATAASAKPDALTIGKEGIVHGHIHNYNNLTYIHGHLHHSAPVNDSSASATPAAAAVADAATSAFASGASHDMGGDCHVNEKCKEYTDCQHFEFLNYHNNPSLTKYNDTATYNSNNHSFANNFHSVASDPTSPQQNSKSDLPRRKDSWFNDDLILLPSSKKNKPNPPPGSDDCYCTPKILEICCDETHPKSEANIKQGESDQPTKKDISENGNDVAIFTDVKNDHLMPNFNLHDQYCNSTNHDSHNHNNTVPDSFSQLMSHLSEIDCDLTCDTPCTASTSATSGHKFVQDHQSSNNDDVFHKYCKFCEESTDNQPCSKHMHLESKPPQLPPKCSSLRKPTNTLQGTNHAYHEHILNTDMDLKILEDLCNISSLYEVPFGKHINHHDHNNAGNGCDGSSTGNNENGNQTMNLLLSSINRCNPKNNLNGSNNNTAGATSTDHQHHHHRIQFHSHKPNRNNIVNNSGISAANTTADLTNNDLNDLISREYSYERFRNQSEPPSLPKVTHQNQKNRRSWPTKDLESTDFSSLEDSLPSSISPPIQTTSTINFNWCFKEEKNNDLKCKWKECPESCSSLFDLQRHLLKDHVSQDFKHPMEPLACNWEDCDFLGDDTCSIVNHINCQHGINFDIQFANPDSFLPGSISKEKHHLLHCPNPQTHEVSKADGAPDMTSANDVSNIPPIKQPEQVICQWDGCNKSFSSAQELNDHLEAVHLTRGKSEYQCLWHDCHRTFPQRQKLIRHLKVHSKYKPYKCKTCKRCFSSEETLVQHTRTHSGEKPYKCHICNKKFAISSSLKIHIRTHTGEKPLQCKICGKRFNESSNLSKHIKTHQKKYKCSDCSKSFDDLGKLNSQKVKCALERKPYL
Assay: PBM E-score (8-mer binding enrichment) (E-score (-0.5 to 0.5)); higher = stronger / more preferred TF binding
Settings: protein concentration: 200 nM; construct: GST-full length
Whole data set: some 33,000 sequences, median “E-score (-0.5 to 0.5)” near -0.021, cut for the highest 2% near 0.32. What follows is part of a selection rich in the highest values, with near analogues and random picks from the rest.
Give the figure only, with no unit attached.

In the examples that follow, each entry is paired with its recorded PBM E-score.
Data request: Respond only with PBM E-score recorded for "ATATATAA"
Data returned: 0.249

Data request: Respond only with PBM E-score recorded for "AAAGGGGC"
Data returned: -0.00977

Data request: Respond only with PBM E-score recorded for "CACTACGC"
Data returned: -0.163

Data request: Respond only with PBM E-score recorded for "CTCGTAAC"
Data returned: 0.327

Data request: Respond only with PBM E-score recorded for "GTGCACGA"
Data returned: 0.0644

Others:
Data request: Respond only with PBM E-score recorded for "CCCAAGGA"
Data returned: 0.00233

* * *

Target: Zap1 (UniProt P47043)
Sequence: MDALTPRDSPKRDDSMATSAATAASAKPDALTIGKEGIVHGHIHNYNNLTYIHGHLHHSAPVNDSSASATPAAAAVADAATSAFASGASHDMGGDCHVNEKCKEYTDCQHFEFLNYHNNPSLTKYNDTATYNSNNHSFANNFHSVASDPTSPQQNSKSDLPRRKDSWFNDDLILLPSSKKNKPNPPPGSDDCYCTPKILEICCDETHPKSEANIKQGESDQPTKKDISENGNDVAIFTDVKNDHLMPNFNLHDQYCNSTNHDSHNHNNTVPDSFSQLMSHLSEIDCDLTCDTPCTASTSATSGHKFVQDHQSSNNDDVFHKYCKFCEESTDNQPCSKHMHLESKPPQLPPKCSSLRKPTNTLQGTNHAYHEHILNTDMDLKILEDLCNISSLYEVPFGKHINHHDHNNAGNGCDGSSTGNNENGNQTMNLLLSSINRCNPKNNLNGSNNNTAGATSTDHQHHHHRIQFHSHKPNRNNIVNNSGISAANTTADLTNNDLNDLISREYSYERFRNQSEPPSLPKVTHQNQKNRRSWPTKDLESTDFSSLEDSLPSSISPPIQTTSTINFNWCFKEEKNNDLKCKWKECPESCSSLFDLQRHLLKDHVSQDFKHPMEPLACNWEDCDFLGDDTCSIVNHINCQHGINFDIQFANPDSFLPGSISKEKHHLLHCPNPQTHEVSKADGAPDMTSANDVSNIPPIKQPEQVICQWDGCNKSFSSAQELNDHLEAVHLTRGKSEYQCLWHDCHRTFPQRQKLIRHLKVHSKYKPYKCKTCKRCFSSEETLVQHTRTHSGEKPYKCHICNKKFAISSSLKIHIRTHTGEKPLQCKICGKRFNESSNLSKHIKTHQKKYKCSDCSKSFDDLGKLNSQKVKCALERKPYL
Test: PBM E-score (8-mer binding enrichment) (E-score (-0.5 to 0.5)); higher = stronger / more preferred TF binding
Conditions: protein concentration: 200 nM; construct: GST-full length
Whole data set: some 33,000 sequences, median “E-score (-0.5 to 0.5)” near -0.021, cut for the highest 2% near 0.32. What follows is part of a selection rich in the highest values, with near analogues and random picks from the rest.
METRIC: PBM E-score
Give the figure only, with no unit attached.

In the examples that follow, each entry is paired with its recorded PBM E-score.
Data request: Respond only with PBM E-score recorded for "GATCAACC"
Data returned: -0.0383

Data request: Respond only with PBM E-score recorded for "CATGACCC"
Data returned: 0.38

Others:
Data request: Respond only with PBM E-score recorded for "GATGACCA"
Data returned: 0.129
